# System: MDA-MB-468 breast
# protocol: NCI-60 one-dose screen, 48 h (100 = growth as untreated, 0 = no growth, -100 = all killed)
# measurement-setup: 10 µM unless noted
This is part of a sample that, as a whole, favours compounds with a hit. Of some 83,000 tested, about 20% had one in any assay.
readout-label: growth (%)
Reply numerically in %, unit not repeated.

| compound | growth (%) |
| --- | --- |
| CN(C)c1ncc(C#Cc2c(F)cccc2F)c2ccccc12 | -7.26 |
| COc1ccc(CCNc2nc3c(c(=O)n(Cc4ccc(Br)cc4)c(=O)n3C)n2C)cc1OC | 109 |
| CC1COCC(C)N1C1=C(Cl)C(=O)c2ccccc2C1=O (stereo not drawn) | -92 |
| CCCCCCn1c(-c2ccc(C(=O)O/N=C(\N)c3ccc(OC)cc3)cc2)nc(-c2ccccc2)c1-c1ccccc1 | -6.91 |
| S=C1CCCC(=S)N1 | 100 |
| O=c1[nH]c2ccccc2cc1-c1nc2ccc(Cl)cc2[nH]1 | 60.7 |
| c1ccc2cc(Cn3c(-c4ccc5ccccc5c4)[n+](Cc4ccc5ccccc5c4)c4ccccc43)ccc2c1 | -42.9 |
| COc1ccc([N+](=O)[O-])c(C(=O)O)c1 | 96.4 |

Ask: State its growth for this compound: CCCC#CCN(CC)CC
Result: 99.1

Ask: Determine its reported growth: CCN(CC)CC(O)c1cc(-c2ccc(Cl)cc2)nc2c(C)c(Cl)ccc12 (stereo not drawn)
Result: -88.6

Ask: In one line, give reported growth of the entry Cc1nc(Nc2cccnc2)sc1C(=O)/C=C/c1ccc(Cl)cc1 .
Result: 11.8

Ask: State, in one line, measured growth of CCC(=O)Oc1ccc2c(c1)CC[C@@H]1[C@@H]2CC[C@]2(C)C[C@H](OC(=O)CC)C[C@@H]12
Result: 47.9

---

# System: COLO 205 colon
# protocol: NCI-60 one-dose screen, 48 h
# measurement-setup: 10 µM
About 83,000 compounds went through this panel and 20% of them were active in at least one assay; those are over-represented in the sample as a whole. The source made the active and inactive calls. How the source made its calls: active means growth percent below 10; inactive means the rest.
Hello, when you answer, please use one of the following outcomes: Y = active, N = inactive

Use these answered entries as a reference point.
| molecule | classification |
| --- | --- |
| COc1cc2oc(-c3cccc(C(=O)Nc4ccc(Cl)cc4)c3)cc(=O)c2c(OCCNC(=O)[C@@H](N)CO)c1OC | N |
| Fc1ccc(-c2csc(Nc3cccc(Nc4nc(-c5ccc(F)cc5)cs4)c3)n2)cc1 | N |
| COc1ccc(OC)c(-n2cc(C#N)c(N)c2C(=O)c2ccc(Cl)cc2Cl)c1 | N |

Ask: How was CC1(C)CC(=O)C2=C(C1)N(Cc1ccc(C(=O)O)cc1)C1=C(C(=O)CC(C)(C)C1)C2c1ccc(Cl)cc1 classified in this test?
Result: N

---

# System: MDA-MB-468 breast
# protocol: NCI-60 one-dose screen, 48 h
# measurement-setup: 10 µM unless noted
The panel holds about 83,000 compounds, 20% with a hit somewhere; the sample as a whole holds those more often. The source made the active and inactive calls. The calls were made as follows: active = growth percent below 10; inactive = the rest.
Select the matching outcome among Yes (active), No (inactive)

Please review the entries below; each comes with its answer.
| molecule | classification |
| --- | --- |
| Cc1cc(C)c(NC(=O)c2sc3nc4c(cc3c2N)CCCCCC4)c(C)c1 | No |
| Clc1ccc2c(NCCNc3nc(Cl)nc4ccccc34)ccnc2c1 | Yes |
| N#Cc1c2c(c(N)[nH]c1=O)C(=O)NC2(O)c1ccccc1 (stereo unspecified) | No |
| CCCCC/C=C/C(C)=C/C1CC(C)C/C=C/CCC(O)C(OC(N)=O)CCC(C)CC(O)C(C)C(=O)O1 (stereo unspecified) | No |
| COc1ccc2c(c1)c(-c1nnc(N)nc1-c1cn(C)c3ccccc13)cn2C | No |

Ask: Which outcome was assigned to c1ccc(-c2cc3cc4ccccc4cn3c2)cc1 in this test?
Result: No

Ask: For C/C(=N/Nc1nc(N/N=C(/C)c2ccc([N+](=O)[O-])cc2)nc(N2CCOCC2)n1)c1ccc([N+](=O)[O-])cc1 , what call appears in the results of this test?
Result: No

Ask: What is the recorded call for this molecule in the test? O=C(Nc1ccccc1Cl)c1c[nH]c(=O)c(-c2ccc(N3CCCOC4(CC4)C3)cc2)c1
Result: Yes

Ask: Answer briefly: the call reported for O=C(CSc1nc2ccc([N+](=O)[O-])cc2[nH]1)Nc1cccc(C(F)(F)F)c1 in this assay.
Result: Yes

Ask: I would be grateful if you could indicate the recorded call for CC(=O)C1CCCCC1 .
Result: No
